- Species: Rattus norvegicus
- Test Details: DrugMatrix - Regimen: Daily Repeat
- Assay type: toxicity, organism-based, Sprague-Dawley
- Parameters: regimen Daily Repeat, gender Male, age 6-8 weeks
- Condition Details: in vivo, po, 0 mg/kg, 72 h, tissue Plasma, route oral GAVAGE, dose level Control, time 3 day, […]
Parameter LIPASE: see the listing below.
Give the value, in units of u/L, as a plain number.

Worked examples follow.
COC1=CC(=O)C[C@@H](C)[C@]12Oc1c(Cl)c(OC)cc(OC)c1C2=O [GRISEOFULVIN]
10
CN(C)CCCC1(c2ccc(F)cc2)OCc2cc(C#N)ccc21 (centres undefined) [CITALOPRAM]
11.83
CC(=O)[C@H]1CC[C@H]2[C@@H]3CCC4=CC(=O)CC[C@]4(C)[C@H]3CC[C@]12C [PROGESTERONE]
11.83
CCCCCCCCCc1ccc(O)cc1 [4-NONYLPHENOL]
10.67
CC(C)(Oc1ccc(CCNC(=O)c2ccc(Cl)cc2)cc1)C(=O)O [BEZAFIBRATE]
10
CC(C)n1c(/C=C/C(O)CC(O)CC(=O)O)c(-c2ccc(F)cc2)c2ccccc21 (centres undefined) [FLUVASTATIN]
9.83

**Q:** Which measured LIPASE value corresponds to CCCC[C@@H](CC)COC(=O)c1ccccc1C(=O)OC[C@@H](CC)CCCC [BIS(2-ETHYLHEXYL)PHTHALATE] ?
**A:** 9.67

**Q:** Which measured LIPASE value corresponds to Cn1cnc([N+](=O)[O-])c1Sc1ncnc2nc[nH]c12 [AZATHIOPRINE] ?
**A:** 12.67

**Q:** Which measured LIPASE value corresponds to c1ccc2[nH]c(-c3cscn3)nc2c1 [THIABENDAZOLE] ?
**A:** 9.67

---

- Organism: Rattus norvegicus
- Test Details: DrugMatrix - Regimen: Daily Repeat
- Format: toxicity, organism-based, Sprague-Dawley
- Set-up: regimen Daily Repeat, gender Male, age 6-8 weeks
- Condition Details: in vivo, po, 0 mg/kg, 120 h, tissue Plasma, route oral GAVAGE, dose level Control, time 5 day, vehicle .5 % CMC
Measurement Type: ALANINE AMINOTRANSFERASE (u/L)
Give the value, in units of u/L, as a plain number.

Worked examples follow.
CCOC(=O)OC(C)OC1=C(C(=O)Nc2ccccn2)N(C)S(=O)(=O)c2ccccc21 (stereo not given)
37.17
CCc1cccc2c3c([nH]c12)C(CC)(CC(=O)O)OCC3 (stereo not given)
42.17
CCc1ccc(C(=O)C(C)CN2CCCCC2)cc1 (stereo not given)
43.33

**Q:** Which measured ALANINE AMINOTRANSFERASE value corresponds to CC(C)[C@H](N)C(=O)OCCOCn1cnc2c(=O)[nH]c(N)nc21 ?
**A:** 49.17

**Q:** Which measured ALANINE AMINOTRANSFERASE value corresponds to CN1CCC[C@@H]1CCO[C@](C)(c1ccccc1)c1ccc(Cl)cc1 ?
**A:** 54.5

**Q:** Which measured ALANINE AMINOTRANSFERASE value corresponds to Cc1c(-c2ccccc2)oc2c(C(=O)OCCN3CCCCC3)cccc2c1=O [FLAVOXATE] ?
**A:** 58.67

**Q:** Which measured ALANINE AMINOTRANSFERASE value corresponds to COC(=O)c1ccc(O)cc1 ?
**A:** 45.17
